In this section, each of the variants is paired with its reported abundance fitness.
B1: Intersectin-1, residues 909 to 971; numbered along this chain, Q15811 (parent)
chain: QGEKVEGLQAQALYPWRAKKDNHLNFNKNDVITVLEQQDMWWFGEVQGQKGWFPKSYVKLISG

- Variants of: B1
- protocol-description: abundance fitness (aPCA) (normalised: wild type 0, dead -1); higher = more abundant; growth selection in yeast, the domain comes from the species named
- recorded-conditions: Homo sapiens
Answer as a number with no unit attached.

Param item = E3H ; retrieve measured abundance fitness.
-0.088

Give the measured abundance fitness of Y57T .
-0.013

Measured values drawn from the Human Domainome abundance scans (Beltran et al. 2025) for this set.
